Reference source for all entries: paper PMC12195967

Would you mind telling me the reported K(BSA, ibuprofen) of each entry?
- test target: bovine serum albumin (BSA) (Bos taurus)
- Construct: purchased Sigma-Aldrich Co
- Sequence (P02769 25-607): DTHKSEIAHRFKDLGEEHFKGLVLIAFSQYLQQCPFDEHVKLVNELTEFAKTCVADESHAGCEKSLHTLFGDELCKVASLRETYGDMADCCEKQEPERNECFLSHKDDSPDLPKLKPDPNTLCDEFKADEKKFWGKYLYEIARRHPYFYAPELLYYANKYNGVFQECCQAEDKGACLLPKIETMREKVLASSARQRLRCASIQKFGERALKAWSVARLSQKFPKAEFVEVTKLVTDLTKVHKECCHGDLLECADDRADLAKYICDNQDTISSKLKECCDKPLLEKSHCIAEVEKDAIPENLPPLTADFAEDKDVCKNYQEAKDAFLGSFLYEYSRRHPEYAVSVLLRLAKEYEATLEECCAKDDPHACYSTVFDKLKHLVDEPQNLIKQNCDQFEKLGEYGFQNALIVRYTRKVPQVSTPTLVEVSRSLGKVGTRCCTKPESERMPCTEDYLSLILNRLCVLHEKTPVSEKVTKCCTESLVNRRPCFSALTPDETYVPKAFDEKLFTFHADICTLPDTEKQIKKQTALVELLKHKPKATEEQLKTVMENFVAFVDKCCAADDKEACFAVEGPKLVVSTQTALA
- experiment description: Competitive albumin-fluorescence studies with warfarin and ibuprofen
- Type: binding
- condition description: in the presence of ibuprofen

Worked cases, K(BSA, ibuprofen) given:
O=C(O)c1ccccc1Nc1ccc([N+](=O)[O-])cc1
2.70 (±0.11) × 10^5 M^−1
O=C([O-])c1ccccc1Nc1ccc([N+](=O)[O-])cc1.O=C([O-])c1ccccc1Nc1ccc([N+](=O)[O-])cc1.[Co+2].c1cnc2c(c1)ccc1cccnc12 [Complex 3, [Co(4′–NO2–fen)2(phen)]]
1.95 (±0.03) × 10^5 M^−1

Your task in this section: give K(BSA, ibuprofen) for each listed record.
1. C[O-].C[O-].Cc1ccc2ccc3ccc(C)nc3c2n1.Cc1ccc2ccc3ccc(C)nc3c2n1.O=C([O-])c1ccccc1Nc1ccc([N+](=O)[O-])cc1.O=C([O-])c1ccccc1Nc1ccc([N+](=O)[O-])cc1.[Co+2].[Co+2] [Complex 4, [Co2(4′–NO2–fen)2(μ–CH3O)2(neoc)2]]
2. O=C([O-])c1ccccc1Nc1ccc([N+](=O)[O-])cc1.O=C([O-])c1ccccc1Nc1ccc([N+](=O)[O-])cc1.[Co+2].c1ccc(Nc2ccccn2)nc1 [Complex 2, [Co(4′–NO2–fen)2(bipyam)]]
3. CO.CO.CO.CO.O=C([O-])c1ccccc1Nc1ccc([N+](=O)[O-])cc1.O=C([O-])c1ccccc1Nc1ccc([N+](=O)[O-])cc1.[Co+2] [Complex 1, [Co(4′–NO2–fen)2(MeOH)4]]

Result ::
1: 3.60 (±0.14) × 10^5 M^−1; 2: 1.42 (±0.09) × 10^5 M^−1; 3: 1.38 (±0.08) × 10^5 M^−1
